Measured MNTC at 24 h, listed per entry for reference.
assay: Cytotoxicity against human HT-29 cells expressing NF-kappaB-hrGFP assessed as highest non-cytotoxic dose for 100% cell survival after 24 hrs by MTT assay; format: cell-based; settings: read-out: Activity

COMPOUND: Cc1c(C(=O)N/N=C/c2c(-c3ccccc3)no[n+]2[O-])no[n+]1[O-]
MNTC at 24 h (µM): 100
//
COMPOUND: NNC(=O)c1ccc2c(c1)OCO2
MNTC at 24 h (µM): 50
//
COMPOUND: O=C(N/N=C/c1ccc2no[n+]([O-])c2c1)c1ccc2c(c1)OCO2
MNTC at 24 h (µM): 400
//
COMPOUND: O=C(N/N=C/c1c(-c2ccccc2)no[n+]1[O-])c1cnn(-c2ccccc2)c1
MNTC at 24 h (µM): 400
//
COMPOUND: Cc1c(C(=O)N/N=C/c2ccc(C(=O)O)cc2)no[n+]1[O-]
MNTC at 24 h (µM): 400
//
COMPOUND: Cc1[nH]cnc1C(=O)N/N=C/c1no[n+]([O-])c1C
MNTC at 24 h (µM): 100
//
COMPOUND: O=C1CCC(N2C(=O)c3ccccc3C2=O)C(=O)N1 (stereo not drawn) [THALIDOMIDE]
MNTC at 24 h (µM): 100
//
COMPOUND: Cc1c(C(=O)N/N=C/c2ccco2)no[n+]1[O-]
MNTC at 24 h (µM): 100
//
COMPOUND: Cc1nc2ccccn2c1C(=O)N/N=C/c1ccc2no[n+]([O-])c2c1
MNTC at 24 h (µM): 400
//
COMPOUND: Cc1c(/C=N/NC(=O)c2cccnc2)no[n+]1[O-] (mixture of isomers)
MNTC at 24 h (µM): 100
//
COMPOUND: Cc1nc2ccccn2c1C(=O)NN
MNTC at 24 h (µM): 50
//
COMPOUND: Cc1nc2ccccn2c1C(=O)N/N=C/c1no[n+]([O-])c1C
MNTC at 24 h (µM): 400
//
COMPOUND: O=C(N/N=C/c1ccc2no[n+]([O-])c2c1)c1cccnc1
MNTC at 24 h (µM): 50
//
COMPOUND: O=C(O)c1ccc(/C=N/NC(=O)c2c(-c3ccccc3)no[n+]2[O-])cc1
MNTC at 24 h (µM): 50
//
COMPOUND: COc1cc(/C=N/NC(=O)c2no[n+]([O-])c2C)ccc1O
MNTC at 24 h (µM): 100
//
COMPOUND: COc1ccc(/C=N/NC(=O)c2no[n+]([O-])c2C)cc1O
MNTC at 24 h (µM): 400
//
COMPOUND: Cc1nc2ccccn2c1C(=O)N/N=C/c1c(-c2ccccc2)no[n+]1[O-]
MNTC at 24 h (µM): 400
//
COMPOUND: Cc1c(C(=O)N/N=C/c2ccccc2O)no[n+]1[O-]
MNTC at 24 h (µM): 100
//
COMPOUND: Cc1c(C(=O)N/N=C/c2ccc3no[n+]([O-])c3c2)no[n+]1[O-]
MNTC at 24 h (µM): 400
//
COMPOUND: Cc1c(C(=O)N/N=C/c2ccc(N(C)C)cc2)no[n+]1[O-]
MNTC at 24 h (µM): 100
//
COMPOUND: COc1ccc(/C=N/NC(=O)c2no[n+]([O-])c2C)cc1OC
MNTC at 24 h (µM): 400
//
COMPOUND: O=C(N/N=C/c1c(-c2ccccc2)no[n+]1[O-])c1cccnc1
MNTC at 24 h (µM): 25
//
COMPOUND: O=C(N/N=C/c1c(-c2ccccc2)no[n+]1[O-])c1ccc2c(c1)OCO2
MNTC at 24 h (µM): 100

Each recorded value in this set is attributed to ChEMBL document CHEMBL1955718.
